experiment: solvent given as SMILES
test settings: in CO
endpoint: absorption maximum (nm)

COc1ccc(/N=N/c2c(O)c3ccccc3n(C)c2=O)c(S(=O)(=O)O)c1	448
CN(C)c1ccc2nc(-c3ccc(C(=O)Nc4ccccc4)cc3)sc2c1	389
CCOC(=O)/C(C#N)=C\c1cn(-c2ccccc2)nc1-c1ccccc1	344
Cc1nc2c(ccc3c2sc(/C=C/c2ccc(-n4c5ccccc5c5ccccc54)cc2)[n+]3C)s1	446
CC[n+]1c(C=C2C(=O)C(C=C3N(C)c4ccccc4C3(C)C)=C2[O-])[se]c2ccccc21	643
O=Cc1cc(O)ccc1O	364
CCN(CC)c1ccc2c(c1)OC1=C(/C=C/C3=[N+](C)c4ccccc4C3(C)C)CCCC1=C2c1ccccc1C(=O)O	700
O=C(O)CCCCCn1c2ccc(Br)cc2c(=O)c2cc3c(cc21)c(=O)c1cc(Br)ccc1n3CCCCCC(=O)O	533
CN(C)CCNc1ccc([N+](=O)[O-])cc1[N+](=O)[O-]	350
COc1cc2c3cc(OC)c(OC)cc3c3cc4c(C)cc(=O)oc4cc3c2cc1OC	364
CN1C2=Nc3n(C)c4ccccc4[n+]3CN2c2ccccc21	339
COc1ccc(C#Cc2nc3ccccc3nc2-c2cn(C)c3ccccc23)cc1	415
CCOC(=O)CC[N+]1=c2cc3c(cc2CCC1)=Cc1c(c2ccc(N(C)C)cc2oc1=O)O3	591
CN(C)c1nc(N)nc2c1nc(C#N)n2Cc1ccccc1	327
O=[N+]([O-])c1cccs1	308
COC(=O)c1nc2c(N(C)C)nc(N)nc2n1Cc1ccccc1	331
O=c1oc2cc3ccccc3cc2nc1-c1ccccc1	346
O=C1C=C(Nc2ccc([N+](=O)[O-])cc2[N+](=O)[O-])C(=O)c2ccccc21	437
CC(C)(C)c1ccc2ccc3cccc4ccc1c2c34	338
CN1CCN(c2ccc3c4c(cccc24)C(=O)c2ccccc2-3)CC1	456.4
c1ccc(-c2nc(-c3ccc(N(c4ccccc4)c4ccccc4)cc3)n3ccccc23)cc1	348

----------
absorption maximum values for the compounds below.
experiment: solvent given as SMILES
test settings: in ClCCl
endpoint: absorption maximum (nm)

COC(=O)c1[nH]c(-c2ccc(OC)cc2)c2nnc3ccc(OC)cc3c12	401
Oc1ccccc1-c1nc(-c2ccccc2)c2ccccn12	345
O=c1c2ccccc2sc2ccc(-n3c4ccccc4c4ccccc43)cc12	388
Cn1c(=O)c(/N=N/c2ccc(S(=O)(=O)O)c3ccccc23)c(O)c2ccccc21	467
O=c1c2ccccc2n(-c2ccc(-c3ccc(-n4c5ccccc5c5ccccc54)cc3)cc2)c2ccccc12	394
Cc1ccc(N(c2ccc(C)cc2)c2ccc(-c3ccc(-c4ccc(N(c5ccc(C)cc5)c5ccc(C)cc5)cc4)c4nsnc34)cc2)cc1	485
CN(C)c1ccc(C#Cc2ccc3c(N(C)C)cc(-c4ccccc4)cc3c2)cc1	341
CCOC(=O)c1c(-c2cc3ccccc3oc2=O)nn(-c2ccc(C)c(C)c2)c1C(=O)OCC	322
c1cc2cccc3c4cccc5cccc(c(c1)c23)c54	438
CC(C)(C)c1ccc2c(c1)c1cc(C(C)(C)C)ccc1n2-c1ccc(N(c2ccc(-c3ccc(-c4ccc(N(c5ccc(-n6c7ccc(C(C)(C)C)cc7c7cc(C(C)(C)C)ccc76)cc5)c5ccc(-n6c7ccc(C(C)(C)C)cc7c7cc(C(C)(C)C)ccc76)cc5)cc4)c4nsnc34)cc2)c2ccc(-n3c4ccc(C(C)(C)C)cc4c4cc(C(C)(C)C)ccc43)cc2)cc1	462
C1=Cc2ccc(N(c3ccccc3)c3cccc4ccccc34)cc2C2(c3cc(N(c4ccccc4)c4cccc5ccccc45)ccc31)c1ccccc1-c1ccccc12	403
Oc1c(-c2ccco2)cccc1-c1nc2ccccc2s1	360
FC(F)(F)C(F)(F)C(F)(F)C(F)(F)C(F)(F)C(F)(F)CCOc1nnc(Cl)nn1	519
COc1cc(C(=O)c2c(C)c3ccc4cccc5c6cccc7ccc2c(c76)c3c45)cc(OC)c1OC	391
CCCc1ccc(C#Cc2cc(C#Cc3ccc(N(C)C)cc3)c3ccc4c(C#Cc5ccc(N(C)C)cc5)cc(C#Cc5ccc(CCC)cc5)c5ccc2c3c54)cc1	488
C(=C\c1cc(/C=C/c2ccccc2)cc(/C=C/c2ccccc2)c1)/c1ccccc1	317
CCN(CC)c1c2ccc(=[N+]3CCCCC3)cc-2oc2cc(N3CCCCC3)ccc12	499
